- System: Fibroblast
- assay_notes: Multiplex assay against human fibroblast
- Type: toxicity, cell-based
- test_parameters: 48 h, 1 µM, compound concentration 1 uM, replicate 2
Note to self: use label 1 only for Population Membrane Permeable-Phenotype (%) readings below 3%; a reading exactly at 3% still gets label 0.

Solved entries:
>  <compound>
O=C(NCCN1CCC(n2c(=O)[nH]c3cc(Cl)ccc32)CC1)c1ccc(F)cc1 [HALOPEMIDE]

>  <measurement_target>
Fibroblast

>  <group>
label 0

$$$$
>  <compound>
COc1cccc2c1c(NS(=O)(=O)c1ccc(Cl)s1)nn2Cc1cccc(CNC(=O)C(C)(C)O)c1

>  <measurement_target>
Fibroblast

>  <group>
label 0

$$$$
>  <compound>
Cl.NCCc1ccc(O)c(O)c1 [DOPAMINE HYDROCHLORIDE]

>  <measurement_target>
Fibroblast

>  <group>
label 0

$$$$
>  <compound>
Br.CS(=O)(=O)Nc1c(O)ccc2c1CCCC2C1=NCCN1 (configuration not stated)

>  <measurement_target>
Fibroblast

>  <group>
label 1

$$$$

Now look at this entry.
[in] Confirm or reject: Population Membrane Permeable-Phenotype (%) of CN(C)C(=O)Cn1cc(-c2ccc(-c3cncc4ccccc34)cc2)cn1 lies strictly below 3%
[out] label 0

###

- Test system: HEK-293T
- assay_notes: Multiplex assay against HEK293T
- Format: toxicity, cell-based
- test_parameters: human, 24 h, 1 µM, compound concentration 1 uM, replicate 1
Note to self: use YES only for Population Apoptotic (%) readings below 30%; a reading exactly at 30% still gets NO.

Solved entries:
>  <compound>
NCCc1cn(S(=O)(=O)c2c(Cl)nc3sccn23)c2ccccc12.O=C(O)C(=O)O

>  <measurement_target>
HEK-293T

>  <group>
NO

$$$$
>  <compound>
C[C@H](N)COC(=O)[C@@H](CCCCN)NC(=O)Cc1c(-c2ccc3ccccc3c2)[nH]c2c1ccc1ccccc12

>  <measurement_target>
HEK-293T

>  <group>
YES

$$$$
>  <compound>
O=C(CCCc1ccccc1)Nc1nc2ccccc2c(=O)s1

>  <measurement_target>
HEK-293T

>  <group>
YES

$$$$
>  <compound>
Cl.N=C(N)NC(=O)Cc1c(Cl)cccc1Cl [GUANFACINE HYDROCHLORIDE]

>  <measurement_target>
HEK-293T

>  <group>
NO

$$$$
>  <compound>
CC(C)(C)c1cc(NC(=O)Nc2ccc(-c3cn4c(n3)sc3cc(OCCN5CCOCC5)ccc34)cc2)no1

>  <measurement_target>
HEK-293T

>  <group>
NO

$$$$
>  <compound>
CC(C)c1noc(N2CCC(COc3ccc(-c4ccc(S(C)(=O)=O)cc4)nc3)CC2)n1

>  <measurement_target>
HEK-293T

>  <group>
YES

$$$$

[in] Confirm or reject: Population Apoptotic (%) of COc1cccc2c1c(NS(=O)(=O)c1ccc(Cl)s1)nn2Cc1cccc(CNC(=O)C(C)(C)O)c1 lies strictly below 30%
[out] YES

[in] Now consider CCCCC1=NC2(CCCC2)C(=O)N1Cc1ccc(-c2ccccc2-c2nnn[nH]2)cc1 .
[out] NO

###

- Test system: U2OS
- assay_notes: Multiplex assay against U2OS
- Assay type: toxicity, cell-based
- test_parameters: human, 24 h, 1 µM, compound concentration 1 uM, replicate 2
measured_property: Population Healthy Nuclei (%)
Give bare numbers, in %.

Example molecules with recorded Population Healthy Nuclei (%):
>  <molecule>
CC(C)(C)c1cc(NC(=O)Nc2ccc(-c3cn4c(n3)sc3cc(OCCN5CCOCC5)ccc34)cc2)no1

>  <measured_property>
Population Healthy Nuclei (%)

>  <output_unit>
%

>  <observed_result>
72

$$$$
>  <molecule>
N#Cc1cc(F)cc(-c2nc(-c3ccc(F)cn3)no2)c1

>  <measured_property>
Population Healthy Nuclei (%)

>  <output_unit>
%

>  <observed_result>
84

$$$$
>  <molecule>
CCCOc1ccc2[nH]cc(C3=CCNCC3)c2n1.Cl

>  <measured_property>
Population Healthy Nuclei (%)

>  <output_unit>
%

>  <observed_result>
73

$$$$

Batch request: Population Healthy Nuclei (%) per item, same order as input.
1. CCc1cc2cc(NS(=O)(=O)c3ccc(C#N)cc3)ccc2n(CC)c1=O
2. Cc1onc(-c2ccccc2Cl)c1C(=O)N(C)c1ccc(Cl)cc1
3. CC[C@@H](C)Nc1nc(C)nc2c(-c3ccc(OC)nc3C)c(C)nn12
4. Cc1c(CC(=O)O)c2cccnc2n1Cc1ccc(S(C)(=O)=O)cc1C(F)(F)F
5. CN(C)C(=O)Cn1cc(-c2ccc(-c3cncc4ccccc34)cc2)cn1

[out]
1. 75
2. 81
3. 75
4. 74
5. 76

Batch request: Population Healthy Nuclei (%) per item, same order as input.
1. COc1ccccc1N1CCN(C[C@@H](C(=O)NC(C)(C)C)c2ccccc2)CC1.Cl.Cl
2. CCCCCC(O)/C=C/[C@H]1C(=O)CC(O)C1C/C=C\CCCC(=O)O (some centres undefined)

[out]
[75, 74]

Batch request: Population Healthy Nuclei (%) per item, same order as input.
1. CN[C@@H](C)C(=O)N[C@H](C(=O)N1CCC[C@H]1C(=O)Nc1snnc1-c1ccccc1)C1CCCCC1
2. COC[C@@H](c1ccc(C(F)(F)F)cc1)N1CCN(C2(C)CCN(C(=O)c3c(C)ncnc3C)CC2)C[C@@H]1C.O=C(O)/C=C\C(=O)O [VICRIVIROC MALEATE]
3. NCCc1cn(S(=O)(=O)c2c(Cl)nc3sccn23)c2ccccc12.O=C(O)C(=O)O
4. C[C@H](N)COC(=O)[C@@H](CCCCN)NC(=O)Cc1c(-c2ccc3ccccc3c2)[nH]c2c1ccc1ccccc12
5. O=C1[C@H](Cc2ccc(O)cc2)N2C(=O)CCN(C(=O)NCc3ccccc3)[C@H]2CN1Cc1cccc2ccccc12
6. Cl.N=C(N)NC(=O)Cc1c(Cl)cccc1Cl [GUANFACINE HYDROCHLORIDE]
7. O=C(CCCc1ccccc1)Nc1nc2ccccc2c(=O)s1

[out]
[44, 64, 70, 77, 71, 74, 73]

Batch request: Population Healthy Nuclei (%) per item, same order as input.
1. CN1CCN(c2cc(-c3ccccc3)nc(N)n2)CC1
2. CCCCC1=NC2(CCCC2)C(=O)N1Cc1ccc(-c2ccccc2-c2nnn[nH]2)cc1

[out]
1. 73
2. 76

###

- Tested on: U2OS
- assay_notes: Multiplex assay against U2OS
- Format: toxicity, cell-based
- test_parameters: human, 24 h, 10 µM, compound concentration 10 uM, replicate 1
measured_property: Population Healthy Nuclei (%)
Answers without a unit are incomplete; give the number and then its unit.

Example compounds with recorded Population Healthy Nuclei (%):
>  <compound>
CC(C)(C)c1cc(NC(=O)Nc2ccc(-c3cn4c(n3)sc3cc(OCCN5CCOCC5)ccc34)cc2)no1 [QUIZARTINIB]

>  <observed_result>
34%

$$$$
>  <compound>
CC(C)c1noc(N2CCC(COc3ccc(-c4ccc(S(C)(=O)=O)cc4)nc3)CC2)n1 [GSK-1292263]

>  <observed_result>
65%

$$$$
>  <compound>
CC[C@@H](C)Nc1nc(C)nc2c(-c3ccc(OC)nc3C)c(C)nn12 [PEXACERFONT]

>  <observed_result>
71%

$$$$

Here is another compound to look at.
[in] Item under review: CC(/C=C1\SC(=S)N(CCCC(=O)Nc2ccc(C(=O)O)c(O)c2)C1=O)=C\c1ccccc1 . Reported Population Healthy Nuclei (%)?
[out] 64%

###

- System: U2OS
- assay_notes: Multiplex assay against U2OS
- Type: toxicity, cell-based
- test_parameters: human, 24 h, 1 µM, compound concentration 1 uM, replicate 1
Kindly state Population Apoptotic (%) for each of the entries shown.
Numbers only, in %.

Example molecules with recorded Population Apoptotic (%):
>  <molecule>
Cc1cnc(-c2cc(N3CCN(C(=O)CCS(C)(=O)=O)CC3)ncc2Cl)c(C)c1

>  <output_unit>
%

>  <Population Apoptotic (%)>
80

$$$$
>  <molecule>
Cl.N=C(N)NC(=O)Cc1c(Cl)cccc1Cl [GUANFACINE HYDROCHLORIDE]

>  <output_unit>
%

>  <Population Apoptotic (%)>
75

$$$$
>  <molecule>
CC(/C=C1\SC(=S)N(CCCC(=O)Nc2ccc(C(=O)O)c(O)c2)C1=O)=C\c1ccccc1

>  <output_unit>
%

>  <Population Apoptotic (%)>
83

$$$$
>  <molecule>
COc1cccc2c1c(NS(=O)(=O)c1ccc(Cl)s1)nn2Cc1cccc(CNC(=O)C(C)(C)O)c1

>  <output_unit>
%

>  <Population Apoptotic (%)>
96

$$$$

Here is another molecule to look at.
[in] Item under review: CCc1cc2cc(NS(=O)(=O)c3ccc(C#N)cc3)ccc2n(CC)c1=O . Reported Population Apoptotic (%)?
[out] 85

###

- Test system: HEK-293T
- assay_notes: Multiplex assay against HEK293T
- Assay type: toxicity, cell-based
- test_parameters: human, 48 h, 10 µM, compound concentration 10 uM, replicate 2
Binned Total Cell Count; ranges: low = under 400, medium = from 400 up to 600, high = 600 and over

Solved entries:
>  <molecule>
Cc1noc(-c2ccc(-c3ccc(CC(=O)O)cc3)cc2)c1NC(=O)O[C@H](C)c1ccccc1Cl

>  <group>
medium

$$$$
>  <molecule>
O=C1[C@H](Cc2ccc(O)cc2)N2C(=O)CCN(C(=O)NCc3ccccc3)[C@H]2CN1Cc1cccc2ccccc12

>  <group>
low

$$$$
>  <molecule>
COc1ccccc1N1CCN(C[C@@H](C(=O)NC(C)(C)C)c2ccccc2)CC1.Cl.Cl

>  <group>
low

$$$$
>  <molecule>
CCCCC1=NC2(CCCC2)C(=O)N1Cc1ccc(-c2ccccc2-c2nnn[nH]2)cc1 [IRBESARTAN]

>  <group>
high

$$$$
>  <molecule>
COc1cccc2c1c(NS(=O)(=O)c1ccc(Cl)s1)nn2Cc1cccc(CNC(=O)C(C)(C)O)c1

>  <group>
medium

$$$$

[in] Assign a bin to Cl.NCCc1ccc(O)c(O)c1 [DOPAMINE HYDROCHLORIDE]
[out] high

[in] Now consider C[C@H](N)COC(=O)[C@@H](CCCCN)NC(=O)Cc1c(-c2ccc3ccccc3c2)[nH]c2c1ccc1ccccc12 .
[out] high

[in] Now consider Cc1sc2c(c1C)C(c1ccc(Cl)cc1)=N[C@@H](CC(=O)NCCCCCCCCNC(=O)COc1cccc3c1C(=O)N(C1CCC(=O)NC1=O)C3=O)c1nnc(C)n1-2 (some centres undefined) .
[out] low

[in] Now consider CN(C)C(=O)Cn1cc(-c2ccc(-c3cncc4ccccc34)cc2)cn1 .
[out] medium

Measured values drawn from ChEMBL document CHEMBL5058577 for this set.
